Biological target: Peroxisome proliferator-activated receptor gamma (Homo sapiens, UniProt P37231)
Sequence (P37231 whole entry, the tested form may be a part): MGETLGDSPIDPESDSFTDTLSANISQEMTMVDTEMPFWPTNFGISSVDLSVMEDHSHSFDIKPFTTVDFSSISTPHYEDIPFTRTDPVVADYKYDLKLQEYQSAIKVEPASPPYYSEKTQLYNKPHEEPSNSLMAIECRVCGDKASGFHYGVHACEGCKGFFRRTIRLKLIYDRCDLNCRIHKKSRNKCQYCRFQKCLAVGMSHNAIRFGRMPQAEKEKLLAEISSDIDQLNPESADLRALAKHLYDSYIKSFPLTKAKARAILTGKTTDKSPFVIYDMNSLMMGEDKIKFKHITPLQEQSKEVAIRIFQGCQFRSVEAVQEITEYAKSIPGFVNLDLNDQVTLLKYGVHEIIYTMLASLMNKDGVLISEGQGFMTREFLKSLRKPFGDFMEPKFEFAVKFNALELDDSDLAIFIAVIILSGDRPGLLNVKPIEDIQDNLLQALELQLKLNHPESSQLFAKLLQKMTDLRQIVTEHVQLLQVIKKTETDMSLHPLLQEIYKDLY
Assay: Agonist activity at PPARgamma expressed in HEK293 cells by measuring Gal4 luciferase reporter activity
Metric name: EC50

1. Cc1cc(SCc2nsc(-c3ccc(OC(F)(F)F)cc3)n2)ccc1OC(C)(C)C(=O)O
> 3 µM
2. Cc1cc(SCc2nc(-c3ccc(OC(F)(F)F)cc3)ns2)ccc1OC(C)(C)C(=O)O
> 3 µM
3. Cc1cc(SCc2nc(-c3ccc(C(F)(F)F)cc3)ns2)ccc1OCC(=O)O
> 3 µM

* * *

Experiment: Tmax in rat at 3 mg/kg, po
Assay type: ADME, organism-based
Set-up: dose 3 mg/kg, route oral
Settings: in vivo
Metric name: Tmax (min)

1. Cc1cc(SCc2nc(-c3ccc(OC(F)(F)F)cc3)ns2)ccc1OC(C)(C)C(=O)O
48
